Can you tell me Activity for the items I'm about to list?
- ASSAYED_SYSTEM: Neuronal acetylcholine receptor; alpha9/alpha10 (Homo sapiens) (UniProt Q9UGM1+Q9GZZ6)
- TEST_SUMMARY: Antagonist activity at human alpha9alpha10 nAChR expressed in Xenopus laevis oocytes assessed as inhibition of Ach-induced response by measuring residual activity at 10 uM at -70 mV holding potential measured after 5 mins by two electrode voltage-clamp electrophysiology method relative to control
- Type: cell-based
- EXPERIMENTAL_CONTEXT: Oocyte, filed as antagonist
Peptide text beside a SMILES is read from it.
Could you give me the number in %? Just the number is fine.

Task item: Please supply the value of reported Activity for the item C[C@H](NC(=O)[C@H](CCCNC(=N)N)NC(=O)[C@H](CCCNC(=N)N)NC(=O)[C@H](Cc1c[nH]cn1)NC(=O)[C@H](CO)NC(=O)[C@H](CCCCN)NC(=O)[C@H](CS)NC(=O)[C@H](C)NC(=O)[C@@H]1CCCN1C(=O)[C@H](Cc1c[nH]cn1)NC(=O)[C@H](CO)NC(=O)[C@H](CS)NC(=O)[C@H](CS)NC(=O)CN)C(=O)N[C@@H](CCCNC(=N)N)C(=O)N[C@@H](CS)C(=O)O (H-GCCSHPACKSHRRARC-OH)
Reply: 0.7

Task item: Please supply the value of reported Activity for the item C[C@H](NC(=O)[C@H](CCCNC(=N)N)NC(=O)[C@H](CCCNC(=N)N)NC(=O)[C@H](Cc1c[nH]cn1)NC(=O)[C@H](CO)NC(=O)[C@H](CS)NC(=O)[C@H](C)NC(=O)[C@@H]1CCCN1C(=O)[C@H](Cc1c[nH]cn1)NC(=O)[C@H](CO)NC(=O)[C@H](CS)NC(=O)[C@H](CS)NC(=O)CN)C(=O)N[C@@H](CCCNC(=N)N)C(=O)N[C@@H](CO)C(=O)N[C@@H](CS)C(=O)O (H-GCCSHPACSHRRARSC-OH)
Reply: 6

Task item: Please supply the value of reported Activity for the item C[C@H](NC(=O)[C@H](CCCNC(=N)N)NC(=O)[C@H](CCCNC(=N)N)NC(=O)[C@@H]1CCCN1C(=O)[C@H](CO)NC(=O)[C@H](CS)NC(=O)[C@H](C)NC(=O)[C@@H]1CCCN1C(=O)[C@H](Cc1c[nH]cn1)NC(=O)[C@H](CO)NC(=O)[C@H](CS)NC(=O)[C@H](CS)NC(=O)CN)C(=O)N[C@@H](CCCNC(=N)N)C(=O)N[C@@H](CO)C(=O)N[C@@H](CS)C(=O)O (H-GCCSHPACSPRRARSC-OH)
Reply: 10

Task item: Please supply the value of reported Activity for the item C[C@H](NC(=O)[C@H](CCCNC(=N)N)NC(=O)[C@H](CCCNC(=N)N)NC(=O)[C@H](CCCNC(=N)N)NC(=O)[C@H](CO)NC(=O)[C@H](CS)NC(=O)[C@H](C)NC(=O)[C@@H]1CCCN1C(=O)[C@H](Cc1c[nH]cn1)NC(=O)[C@H](CO)NC(=O)[C@H](CS)NC(=O)[C@H](CS)NC(=O)CN)C(=O)N[C@@H](CCCNC(=N)N)C(=O)N[C@@H](CO)C(=O)N[C@@H](CS)C(=O)O (H-GCCSHPACSRRRARSC-OH)
Reply: 1
